# Tested on: RXRa homodimer (NR concentration 180 nM)
# assay-info: PBM binding z-score (relative to random genomic background probes); higher = stronger binding; sequences stand for … in GC…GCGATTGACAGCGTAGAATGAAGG
Assign Criterion met whenever PBM binding z-score does not fall below 5; assign Criterion not met whenever it does.

Tell me whether PBM binding z-score is at least 5 here: `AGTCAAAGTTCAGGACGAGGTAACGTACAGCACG`
Criterion not met

Cool, now `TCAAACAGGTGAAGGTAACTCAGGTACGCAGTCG`
Criterion not met

Cool, now `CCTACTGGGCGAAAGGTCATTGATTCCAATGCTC`
Criterion met

Cool, now `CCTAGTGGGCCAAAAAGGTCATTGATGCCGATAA`
Criterion not met

Cool, now `ACTAGCAGGCCAAGTTTGGGGCACTCAAACAAAG`
Criterion not met

Cool, now `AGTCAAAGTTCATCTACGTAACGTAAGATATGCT`
Criterion not met

Cool, now `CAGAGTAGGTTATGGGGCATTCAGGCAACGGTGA`
Criterion not met

Cool, now `GCTAGCCGGCCATTTGGGTCACTCAATGACGGGC`
Criterion not met

Cool, now `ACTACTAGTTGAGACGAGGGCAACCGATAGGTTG`
Criterion not met

Cool, now `TCATGTAGGTAAATGCTAGGTGAAAGTCCGATCT`
Criterion not met

Cool, now `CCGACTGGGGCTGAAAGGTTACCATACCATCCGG`
Criterion not met

Cool, now `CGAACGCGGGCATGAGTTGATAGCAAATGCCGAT`
Criterion not met

Cool, now `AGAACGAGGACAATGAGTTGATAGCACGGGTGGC`
Criterion not met

Cool, now `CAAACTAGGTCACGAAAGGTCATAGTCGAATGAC`
Criterion met

Cool, now `ATCGAAAGGTCGTGAGGTGAGGATACAGAAAGGC`
Criterion met

Cool, now `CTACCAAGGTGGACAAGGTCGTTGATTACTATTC`
Criterion not met

====

Would you mind telling me the reported PBM binding z-score of each entry?
# Tested on: PPARg:RXRa DBDmut IVT, anti-RXR (DBD mutation: RXRa K156A/R161A, NR concentration 270 nM, RXRa partner concentration 90 nM)
# assay-info: PBM binding z-score (relative to random genomic background probes); higher = stronger binding; sequences stand for … in GC…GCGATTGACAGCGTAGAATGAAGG
Just the number, please.

# get_value(readout='PBM binding z-score', item= `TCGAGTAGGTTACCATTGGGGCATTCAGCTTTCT` )
3.26

Cool, now `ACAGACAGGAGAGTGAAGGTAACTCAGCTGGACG`
-0.0669

Cool, now `ATCTCTAGGTAACCAAGTTCCGTGAATGCCGAAC`
3.6

Cool, now `CCAAGCAGGCCAGGGTCACTCAAGCATTTCGCTT`
0.264

Cool, now `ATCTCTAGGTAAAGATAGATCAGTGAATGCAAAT`
1.89

Cool, now `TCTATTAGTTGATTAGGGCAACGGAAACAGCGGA`
2.04

Cool, now `GCTAGCAGGCCATTTGGTTCACTCAATGACGGGC`
1.03

Cool, now `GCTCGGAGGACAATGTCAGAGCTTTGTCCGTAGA`
-0.596

Cool, now `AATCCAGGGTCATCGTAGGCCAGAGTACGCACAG`
2.54

Cool, now `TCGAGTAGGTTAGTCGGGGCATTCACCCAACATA`
2.26

Cool, now `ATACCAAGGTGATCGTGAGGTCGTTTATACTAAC`
0.676

Cool, now `CCTGGGAGGACAGAAGGTCAGAGCTGTCCGCTTT`
-0.504

Cool, now `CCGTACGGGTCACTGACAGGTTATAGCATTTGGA`
1.03

Cool, now `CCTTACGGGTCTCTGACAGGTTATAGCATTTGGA`
0.625

Cool, now `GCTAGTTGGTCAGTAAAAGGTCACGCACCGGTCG`
1.6
